- System: panel of 24 kinases
- assay text: Kinase selectivity testing (percentage inhibition of 24 kinases at 1 μM)
- Format: biochemical
- details: proquinase, KIT, 1 uM
measured metric: % inhibiton at 1 uM KIT (%)

compound	value units	% inhibiton at 1 uM KIT
COc1cc(NCC2CCNCC2)nc2c1nnn2-c1cccc(N(C)C)c1 [2-87]	%	10
FC(F)(F)Oc1cccc(-n2nnc3ccc(NCC4CC5(CCNCC5)C4)nc32)c1 [2-67]	%	58
OC1CCC(Nc2ccc3nnn(-c4cccc(OC(F)(F)F)c4)c3n2)CC1 (stereo in doubt) [2-47]	%	2
COc1cc(NCC2CCNCC2)nc2c1nnn2-c1cccc(OC(F)(F)F)c1 [2-92]	%	2
FC(F)(F)Oc1cccc(-n2nnc3cc(Cl)c(NCC4CCNCC4)nc32)c1 [2-54]	%	34

P. FC(F)(F)Oc1cccc(-n2nnc3ccc(N4CCCC5(CCCN5)CC4)nc32)c1 (centres unmarked) [2-65]
Q. FC(F)(F)c1cccc(-n2nnc3cc(Cl)c(NCC4CCNCC4)nc32)c1 [2-83]
Which value of % inhibiton at 1 uM KIT is numerically greater: that of P or that of Q ? Pick one and reply with its label. P
(P: 63%, Q: 26%)

----------
- Test system: panel of 24 kinases
- assay text: Kinase selectivity testing (percentage inhibition of 24 kinases at 1 μM)
- Type: biochemical
- details: proquinase, INS_R, 1 uM
measured metric: % inhibiton at 1 uM INS_R (%)

1. COc1cc(NCC2CCNCC2)nc2c1nnn2-c1cccc(N(C)C)c1
2. OC1CCC(Nc2ccc3nnn(-c4cccc(OC(F)(F)F)c4)c3n2)CC1 (stereo in doubt)
3. FC(F)(F)Oc1cccc(-n2nnc3cc(Cl)c(NCC4CCNCC4)nc32)c1
Put the items above in order of decreasing % inhibiton at 1 uM INS_R. Rank the items, then write their labels in that order. 3, 2, 1

1. COc1cc(NCC2CCNCC2)nc2c1nnn2-c1cccc(OC(F)(F)F)c1
2. FC(F)(F)Oc1cccc(-n2nnc3ccc(NCC4CC5(CCNCC5)C4)nc32)c1
Task for the reader: decide whether 1 or 2 has the larger % inhibiton at 1 uM INS_R. // caller expects the label of the chosen entry 2
(2: 5%, 1: 0%)

----------
- system: PIM-1 (Homo sapiens, UniProt P11309)
- Construct: histidine tag (C); made in house
- Sequence (P11309 whole entry): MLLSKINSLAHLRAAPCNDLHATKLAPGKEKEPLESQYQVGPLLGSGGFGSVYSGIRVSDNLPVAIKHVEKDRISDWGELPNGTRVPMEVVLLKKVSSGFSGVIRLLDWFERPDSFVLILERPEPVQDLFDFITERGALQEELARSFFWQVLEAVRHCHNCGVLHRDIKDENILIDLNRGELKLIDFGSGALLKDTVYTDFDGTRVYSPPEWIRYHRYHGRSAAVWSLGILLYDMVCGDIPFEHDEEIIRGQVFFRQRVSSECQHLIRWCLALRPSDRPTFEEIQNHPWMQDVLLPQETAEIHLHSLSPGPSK
- assay text: PIM-1 biochemical assay (ADP Hunter);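 note: recombinant human PIM-1 carrying a C-terminal His tag, kinase activity quantified via ADP formed as the direct enzymatic product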
- details: semi-quantitative class; read-out: PIM1 IC50
pIC50: −log10 of the molar value.
Each item that follows carries a reported pIC50.

molecule	pIC50
FC(F)(F)Oc1cccc(-n2nnc3cc(Cl)c(N4CCCC5(CCCN5)CC4)nc32)c1 (centres unmarked) [2-78]	> 7.00
OCCCNc1ccc2nnn(-c3cccc(OC(F)(F)F)c3)c2n1 [2-38]	6.00 to 7.00
COc1ccc(-n2nnc3ccc(NCc4cccc(Cl)c4)nc32)cc1 [2-03]	< 6.00
COc1cccc(CCNc2ccc3nnn(-c4ccc(F)cc4)c3n2)c1OC [2-17]	< 6.00

Query molecule follows.
What measured pIC50 goes with CCOC(=O)c1cc2nnn(-c3ccc(OC)cc3)c2nc1NCc1ccc(F)cc1 [2-06] ? < 6.00

----------
- system: PIM-3 (Homo sapiens, UniProt Q86V86)
- Construct: purchased Millipore 14-738
- assay text: PIM-3 biochemical assay (ADP Hunter);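 note: kinase activity read out as the quantity of ADP generated by the enzyme reaction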
- details: semi-quantitative class; read-out: PIM3 IC50
pIC50: −log10 of the molar value.
Reported pIC50 values follow for various compounds

compound	system	pIC50
FC(F)(F)Oc1cccc(-n2nnc3ccc(N4CCCC5(CCNCC5)C4)nc32)c1	PIM-3 (Homo sapiens, UniProt Q86V86)	6.00 to 7.00
O[C@H]1CC[C@@H](Nc2nc3c(cc2Cl)nnn3-c2cccc(OC(F)(F)F)c2)CC1	PIM-3 (Homo sapiens, UniProt Q86V86)	6.00 to 7.00
COc1cc(NCC2CC3(CCNCC3)C2)nc2c1nnn2-c1cccc(N(C)C)c1	PIM-3 (Homo sapiens, UniProt Q86V86)	> 7.00
CN1CCC(CNc2ccc3nnn(-c4cccc(OC(F)(F)F)c4)c3n2)CC1	PIM-3 (Homo sapiens, UniProt Q86V86)	6.00 to 7.00
FC(F)(F)Oc1cccc(-n2nnc3cc(Br)c(NCC4CCNCC4)nc32)c1	PIM-3 (Homo sapiens, UniProt Q86V86)	> 7.00

So what pIC50 did CC(C)N1CCC(CNc2ccc3nnn(-c4cccc(OC(F)(F)F)c4)c3n2)CC1 get with PIM-3 (Homo sapiens, UniProt Q86V86)? 6.00 to 7.00

// next record OC1CCN(c2ccc3nnn(-c4cccc(OC(F)(F)F)c4)c3n2)CC1 6.00 to 7.00

// next record FC(F)(F)Oc1cccc(-n2nnc3ccc(N4CCC5(CCNCC5)C4)nc32)c1 6.00 to 7.00

What do you have for FC(F)(F)Oc1cccc(-n2nnc3ccc(N4CCCC5(CCCN5)CC4)nc32)c1 (centres unmarked) ? > 7.00

Now consider Oc1ccc(-n2nnc3ccc(NCC4CCNCC4)nc32)cc1 . > 7.00

Same thing, different compound: FC(F)(F)Oc1cccc(-n2nnc3ccc(N4CCNCC4)nc32)c1 6.00 to 7.00

Next entry: FC(F)(F)Oc1cccc(-n2nnc3cc(Cl)c(N4CCCC5(CCCN5)CC4)nc32)c1 (centres unmarked) > 7.00

# iterate: FC(F)(F)c1cccc(-n2nnc3ccc(NCC4CCNCC4)nc32)c1 6.00 to 7.00

Cool, now Oc1ccc(-n2nnc3ccc(NCc4ccc(F)cc4)nc32)cc1 > 7.00

Next up: FC(F)(F)Oc1cccc(-n2nnc3ccc(N4CCC5(CC4)CNCCO5)nc32)c1 < 6.00

Now the same for FC(F)(F)c1cccc(-n2nnc3cc(Cl)c(NCC4CCNCC4)nc32)c1 > 7.00

Thanks! And CS(=O)(=O)N1CCC(Nc2ccc3nnn(-c4cccc(OC(F)(F)F)c4)c3n2)CC1 ? < 6.00

Same question for FCCN1CCC(CNc2ccc3nnn(-c4cccc(OC(F)(F)F)c4)c3n2)CC1 please. < 6.00

// same read-out, input: FC(F)(F)Oc1cccc(-n2nnc3ccc(NCC4CCN(Cc5ccncc5)CC4)nc32)c1 > 7.00

Follow-up entry: FC(F)(F)c1cccc(-n2nnc3ccc(N4CCCC5(CCCN5)CC4)nc32)c1 (centres unmarked) 6.00 to 7.00
